biological target: nuclear factor-kappa B (NF-kB)-inducing kinase (NIK) (Homo sapiens); construct: made in house; host or cells: baculovirus-infected insect cells; test: NIK Enzyme Inhibition Assay (Transcreener ADP assay); assay type: biochemical; settings: purified NIK 0.2-1 nM, 10 uM ATP, fluorescence polarization, Morrison's quadratic equation; read-out: inhibitory value (Ki) for NIK
Sequence (Q99558 whole entry): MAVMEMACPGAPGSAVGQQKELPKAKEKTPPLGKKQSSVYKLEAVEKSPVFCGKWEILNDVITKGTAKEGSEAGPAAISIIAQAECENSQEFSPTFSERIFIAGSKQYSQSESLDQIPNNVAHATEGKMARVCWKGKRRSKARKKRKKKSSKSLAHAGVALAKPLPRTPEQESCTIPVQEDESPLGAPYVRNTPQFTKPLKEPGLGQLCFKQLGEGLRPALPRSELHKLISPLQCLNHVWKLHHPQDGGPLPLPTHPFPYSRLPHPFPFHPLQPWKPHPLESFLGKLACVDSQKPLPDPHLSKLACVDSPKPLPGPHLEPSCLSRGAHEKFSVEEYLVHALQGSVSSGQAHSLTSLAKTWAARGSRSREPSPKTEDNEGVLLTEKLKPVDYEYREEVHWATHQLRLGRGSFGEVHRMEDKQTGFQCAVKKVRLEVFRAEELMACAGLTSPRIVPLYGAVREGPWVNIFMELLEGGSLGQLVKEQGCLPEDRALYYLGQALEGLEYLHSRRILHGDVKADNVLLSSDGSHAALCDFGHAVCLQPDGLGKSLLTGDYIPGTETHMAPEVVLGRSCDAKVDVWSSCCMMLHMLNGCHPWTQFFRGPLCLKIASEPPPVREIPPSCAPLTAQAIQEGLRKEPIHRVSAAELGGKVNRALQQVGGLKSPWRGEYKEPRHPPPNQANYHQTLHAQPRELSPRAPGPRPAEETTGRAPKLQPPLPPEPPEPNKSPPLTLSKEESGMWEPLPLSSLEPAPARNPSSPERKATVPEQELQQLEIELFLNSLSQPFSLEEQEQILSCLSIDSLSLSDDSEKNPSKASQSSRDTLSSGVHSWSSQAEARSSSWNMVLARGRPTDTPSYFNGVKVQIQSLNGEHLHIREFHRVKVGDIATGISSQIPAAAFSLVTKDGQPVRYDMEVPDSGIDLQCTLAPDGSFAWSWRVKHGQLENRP
Parameter Measured: pKi
Conceptually, pKi converts a concentration in mol/L into minus its log10.

Example cases with answers are listed next.
input: Data request, read-out pKi, for `Cc1cc([C@](C)(O)C#Cc2ccc3c(CO)nn(-c4ccnc(N)n4)c3c2)no1`
output: 9.66

input: For CC(O)(C#Cc1ccc2[nH]c(=O)n(-c3ccnc(N)n3)c2c1)c1cc(CO)on1 (centres unmarked) then?
output: 9.00

input: For CC(O)(C#Cc1ccc2cnn(-c3ccnc(N)n3)c2c1)c1cn[nH]c1 (centres unmarked) then?
output: 7.74

input: For Cn1cnc(C(C)(O)C#Cc2ccc3c(C(=O)N4CCOCC4)nn(-c4ccnc(N)n4)c3c2)n1 (centres unmarked) then?
output: 7.60

input: For CC(O)(C#Cc1ccc2ncn(-c3nccc(N)n3)c2c1)c1nccs1 (centres unmarked) then?
output: 6.82

***
input: Data request, read-out pKi, for Cc1nc2ccc(C#CC(C)(O)c3nc(CC#N)cs3)cc2n1-c1ncnc(N)n1 (centres unmarked)
output: 5.74

input: For Cc1nn(-c2ccnc(N)n2)c2cc(C#CC(C)(O)c3cc(CO)on3)ccc12 (centres unmarked) then?
output: 8.70

Provenance of the data: patent US8901313B2
